# Test system: different kinases
# ASSAY REMARKS: Kinase activity screening by Millipore UK Ltd, percent kinase activity at 300 nM of compound (Table 31)
# Type: biochemical
# CONDITIONS USED: Pim-1
Think of 90% as a floor: if Percent Kinase Activity of Enzyme Pim-1 stands on it or above, it is Satisfied; beneath it, Not satisfied.

- COMPOUND: "O=C1NC(=O)/C(=C/c2ccnc(N3CCC(CNCc4cccc(-c5ccsc5)n4)CC3)n2)N1 [Example 69]"
  TESTED SYSTEM: "different kinases"
  CLASS: "Not satisfied"
- COMPOUND: "CN(c1nccc(/C=C2\\NC(=O)NC2=O)n1)[C@H]1CCCNC1 [Example 67]"
  TESTED SYSTEM: "different kinases"
  CLASS: "Satisfied"
- COMPOUND: "O=C1NC(=O)/C(=C/c2ccnc(N3CCC(CNCc4ccc5ccccc5n4)CC3)n2)N1 [Example 68]"
  TESTED SYSTEM: "different kinases"
  CLASS: "Not satisfied"
- COMPOUND: "Nc1ccc2c(c1)CN(c1nccc(/C=C3\\NC(=O)NC3=O)n1)CC2 [Example 64]"
  TESTED SYSTEM: "different kinases"
  CLASS: "Not satisfied"
